Documented phosphorylation enrichment across a set of sequences
Tested on: c-Src
Experiment: phosphorylation enrichment, bacterial display (enrichment ratio); higher = better substrate or ligand; peptides without Tyr show the background

# Primary sequence, phosphorylation enrichment
data = [
    ("GGTPLYMDRQG [AGXT_Y194]", 0.505),
]

Could you tell me which phosphorylation enrichment is on file for YEDTLYTVLHR [UNC13D_Y61_A59T] ? 6.38

Try this sequence too: CVGGFYGGCNE [CTSC_Y352_Y347C] 1.88

Try this sequence too: GGDAVYTNGAI [RFX2_Y82] 1.09

Try this sequence too: RREGVYRNNID [PTEN_Y46_L42R] 0.8

Try this sequence too: LAARYYNWVCF [FLT4_Y1231_S1235C] 0.512

Try this sequence too: IVAREYYSEAD [CAMK2A_Y106] 0.548

###

Documented phosphorylation enrichment across a set of sequences
Molecular target: Hck (UniProt P08631)
Sequence (P08631 whole entry, looked up): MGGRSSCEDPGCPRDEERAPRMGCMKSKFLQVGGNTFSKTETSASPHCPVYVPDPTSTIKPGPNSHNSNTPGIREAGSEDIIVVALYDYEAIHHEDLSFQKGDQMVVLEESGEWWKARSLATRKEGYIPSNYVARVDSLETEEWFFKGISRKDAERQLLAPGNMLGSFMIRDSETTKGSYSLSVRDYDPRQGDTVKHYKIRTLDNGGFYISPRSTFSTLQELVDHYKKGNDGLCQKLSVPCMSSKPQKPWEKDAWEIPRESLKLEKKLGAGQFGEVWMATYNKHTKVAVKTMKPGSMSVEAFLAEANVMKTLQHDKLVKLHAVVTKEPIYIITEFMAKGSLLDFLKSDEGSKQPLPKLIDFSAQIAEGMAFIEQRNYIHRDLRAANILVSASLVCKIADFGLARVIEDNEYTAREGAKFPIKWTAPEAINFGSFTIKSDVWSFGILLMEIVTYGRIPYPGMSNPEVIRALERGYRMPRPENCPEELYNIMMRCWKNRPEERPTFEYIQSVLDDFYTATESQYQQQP
Assay: phosphorylation enrichment, bacterial display (enrichment ratio); higher = better substrate or ligand; peptides without Tyr show the background
Write the number on its own, no unit after it.

# Primary sequence, phosphorylation enrichment
rows = [
    ("KGELRYMHSRV [ABCD1_Y281]", 0.377),
    ("TENAGYYFRIS", 0.475),
    ("GRVYVYRLSEQ [ITGAE_Y551]", 0.462),
]

Could you tell me which phosphorylation enrichment is on file for SPQAHYRLSAF [ADAMTS9_Y100_S96P] ? 0.37

Try this sequence too: EYFDGYWEYSV [ITGA2B_Y265_G267E] 4.33

###

Target: Grb2 SH2 (UniProt P62993)
Sequence (P62993 whole entry, looked up): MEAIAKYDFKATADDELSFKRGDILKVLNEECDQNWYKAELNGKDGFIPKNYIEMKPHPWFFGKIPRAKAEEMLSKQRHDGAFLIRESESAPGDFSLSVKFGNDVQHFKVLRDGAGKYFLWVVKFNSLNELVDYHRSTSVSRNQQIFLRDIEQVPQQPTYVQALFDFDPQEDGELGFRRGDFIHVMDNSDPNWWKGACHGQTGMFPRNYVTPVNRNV
Experiment: SH2 binding enrichment of the phosphorylated peptide, bacterial display (enrichment ratio); higher = better substrate or ligand; peptides without Tyr show the background
Documented SH2 binding enrichment across a set of sequences

Consider the reported SH2 binding enrichment for these sequences:
# Primary sequence, SH2 binding enrichment
data = [
    ("DDSSAYRSVDE [BCKDHA_Y345]", 0.794),
    ("RFVFFYSFLLK [PTEN_Y178_YF]", 1.45),
    ("FEELVYETVRV [FSHB_Y76_K72E]", 0.884),
    ("DENWFYTRPAS [RPS19_Y54_A57P]", 0.78),
    ("KFVVVYFRETD [IL17RB_Y447_I451T_YF]", 2.19),
    ("PLDAEYFTLQI [TP53_Y327_G325A]", 0.779),
]

Could you tell me which SH2 binding enrichment is on file for LLIMEYAKFGS [RET_Y806_V804M_YF] ? 1.35

Try this sequence too: SPFEVYVDKSQ [FLNA_Y373] 1.02

Try this sequence too: IDSTPYGQWFE [RPS8_Y109_R110G_YF] 0.821

Try this sequence too: VHYLVYHHHHH [CACNA1H_Y519_H516Y] 0.985

Try this sequence too: EDSEFYKAFEE [CASQ2_Y179_YF] 0.767

Try this sequence too: FSTSPYLLEAA [BRIP1_Y921_YF] 0.954

###

Tested on: c-Abl (mouse)
Assay: phosphorylation enrichment, bacterial display (enrichment ratio); higher = better substrate or ligand; peptides without Tyr show the background
Each entry gets N if its phosphorylation enrichment stays under 0.7, and Y if its phosphorylation enrichment is 0.7 or above.

# Primary sequence, Class label
measured = [
    ("IRCQGYSHRIL [MYO3B_Y993_R990C]", "N"),
    ("DFLSSYSAVNE [OAT_Y85_Q90E]", "N"),
    ("EGTATYAAAVL [JUP_Y644]", "N"),
]

We now examine a further sequence.
Entry KGEDFYCVTRH [FHL1_Y149_C153R] : is its phosphorylation enrichment no less than 0.7? Y

###

Molecular target: Grb2 SH2 (UniProt P62993)
Experiment: SH2 binding enrichment of the phosphorylated peptide, bacterial display (enrichment ratio); higher = better substrate or ligand; peptides without Tyr show the background
Endpoint: SH2 binding enrichment
Write the number on its own, no unit after it.

Consider the reported SH2 binding enrichment for these sequences:
# Primary sequence, SH2 binding enrichment
data = [
    ("EEGNPYFSSTR [MCCC2_Y520_A524T_YF]", 0.884),
    ("GNHISYFQSDG [CACNA1C_Y1757_V1755I_YF]", 0.927),
    ("GIVEDYRPPVY [ACVRL1_Y421_F425V]", 0.825),
    ("GKTQQYDCKWF [BCR_Y751_YF]", 0.826),
    ("GGQDVYGDFGG [Probound]", 0.803),
    ("MAFDRYVAICS [OR8D4_Y123_C120Y_YF]", 0.724),
    ("IEEGTYGVAYR [CDK11B_Y449_V452A]", 0.681),
    ("LSGFCYRLSDQ [PDCD6_Y124_G123C]", 0.948),
]

Could you tell me which SH2 binding enrichment is on file for GRRNTCFASIA [ACADM_Y352_Y352C_YF] ? 0.842

Try this sequence too: FFIMMYTGSNV [DNAJC13_Y1131] 0.9

Try this sequence too: IMVFVYCRVFQ [ADRB2_Y219_S220C] 1.41

Try this sequence too: NTGGFYDLFGG [PTPN11_Y63_D61G_YF] 1.09

Try this sequence too: TFGQVYKGRHV [TNIK_Y40_YF] 0.893

###

Test system: Fer (mouse)
Experiment: phosphorylation enrichment, bacterial display (enrichment ratio); higher = better substrate or ligand; peptides without Tyr show the background
Each entry gets FALSE if its phosphorylation enrichment stays under 0.6, and TRUE if its phosphorylation enrichment is 0.6 or above.

# Primary sequence, Class label
measured = [
    ("FGSLLYKYAFK [FANCD2_Y458]", "FALSE"),
]

Entry SSSPTYPDLPF [GLI3_Y168] : is its phosphorylation enrichment no less than 0.6? TRUE

Try this sequence too: ETRWNYHFEVV [GCNT3_Y267_K266N] FALSE

Try this sequence too: CTTILYNYMCN [TP53_Y234_H233L] TRUE

Try this sequence too: GKTQQYDCKWF [BCR_Y751_YF] FALSE

Try this sequence too: FRDALYKSMVD [PHEX_Y250_F252S_YF] FALSE

Try this sequence too: EVVGRYSLHNA [MLH1_Y183_V185L] FALSE

Try this sequence too: LWQSIYNLDAE [TNNT2_Y251_E254D] FALSE

Try this sequence too: STKELYEKFMI TRUE

Try this sequence too: EEQKRYFNAMK [SCN5A_Y1494_K1493R_YF] FALSE

Try this sequence too: PLDGEYFILQI [TP53_Y327_T329I] TRUE

Try this sequence too: TLQTMYGCDVG [HLA-B_Y123_S121T] TRUE

###

Biological target: FGFR1 (UniProt P11362)
Sequence (P11362 whole entry, looked up): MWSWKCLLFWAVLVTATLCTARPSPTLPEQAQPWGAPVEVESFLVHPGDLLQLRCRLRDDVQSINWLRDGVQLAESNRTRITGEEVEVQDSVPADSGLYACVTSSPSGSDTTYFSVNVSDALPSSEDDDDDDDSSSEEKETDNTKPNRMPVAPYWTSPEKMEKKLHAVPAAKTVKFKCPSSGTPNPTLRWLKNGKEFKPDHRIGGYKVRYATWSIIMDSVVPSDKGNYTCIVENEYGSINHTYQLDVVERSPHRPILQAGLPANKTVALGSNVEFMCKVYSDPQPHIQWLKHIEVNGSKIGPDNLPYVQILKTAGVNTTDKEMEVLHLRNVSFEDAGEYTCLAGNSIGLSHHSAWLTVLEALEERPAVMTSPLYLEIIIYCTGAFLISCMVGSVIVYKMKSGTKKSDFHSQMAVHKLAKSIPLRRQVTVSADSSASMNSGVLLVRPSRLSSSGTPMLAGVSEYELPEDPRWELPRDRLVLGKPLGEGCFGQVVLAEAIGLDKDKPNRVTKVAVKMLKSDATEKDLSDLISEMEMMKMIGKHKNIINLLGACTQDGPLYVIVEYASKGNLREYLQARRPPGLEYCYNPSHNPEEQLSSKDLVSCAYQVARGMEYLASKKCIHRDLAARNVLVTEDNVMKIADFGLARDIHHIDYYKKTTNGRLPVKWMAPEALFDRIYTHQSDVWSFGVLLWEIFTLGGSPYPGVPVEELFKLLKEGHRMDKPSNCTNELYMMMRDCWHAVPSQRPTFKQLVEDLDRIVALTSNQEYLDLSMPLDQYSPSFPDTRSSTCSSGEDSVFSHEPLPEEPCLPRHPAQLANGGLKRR
Assay: phosphorylation enrichment, bacterial display (enrichment ratio); higher = better substrate or ligand; peptides without Tyr show the background
Endpoint: phosphorylation enrichment
Write the number on its own, no unit after it.

Consider the reported phosphorylation enrichment for these sequences:
# Primary sequence, phosphorylation enrichment
records = [
    ("FGMQLYQKFMH [GRB14_Y347_N349K_YF]", 0.454),
    ("FASALYGQRRS [FGF11_Y162_R163G_YF]", 0.364),
]

# ---- query sequence ----
State its phosphorylation enrichment on FGFR1 (UniProt P11362): CKQGKYLNWDA [ATM_Y54_S49C] 0.447

###

Documented phosphorylation enrichment across a set of sequences
Biological target: Fes (UniProt P07332)
Sequence (P07332 whole entry, looked up): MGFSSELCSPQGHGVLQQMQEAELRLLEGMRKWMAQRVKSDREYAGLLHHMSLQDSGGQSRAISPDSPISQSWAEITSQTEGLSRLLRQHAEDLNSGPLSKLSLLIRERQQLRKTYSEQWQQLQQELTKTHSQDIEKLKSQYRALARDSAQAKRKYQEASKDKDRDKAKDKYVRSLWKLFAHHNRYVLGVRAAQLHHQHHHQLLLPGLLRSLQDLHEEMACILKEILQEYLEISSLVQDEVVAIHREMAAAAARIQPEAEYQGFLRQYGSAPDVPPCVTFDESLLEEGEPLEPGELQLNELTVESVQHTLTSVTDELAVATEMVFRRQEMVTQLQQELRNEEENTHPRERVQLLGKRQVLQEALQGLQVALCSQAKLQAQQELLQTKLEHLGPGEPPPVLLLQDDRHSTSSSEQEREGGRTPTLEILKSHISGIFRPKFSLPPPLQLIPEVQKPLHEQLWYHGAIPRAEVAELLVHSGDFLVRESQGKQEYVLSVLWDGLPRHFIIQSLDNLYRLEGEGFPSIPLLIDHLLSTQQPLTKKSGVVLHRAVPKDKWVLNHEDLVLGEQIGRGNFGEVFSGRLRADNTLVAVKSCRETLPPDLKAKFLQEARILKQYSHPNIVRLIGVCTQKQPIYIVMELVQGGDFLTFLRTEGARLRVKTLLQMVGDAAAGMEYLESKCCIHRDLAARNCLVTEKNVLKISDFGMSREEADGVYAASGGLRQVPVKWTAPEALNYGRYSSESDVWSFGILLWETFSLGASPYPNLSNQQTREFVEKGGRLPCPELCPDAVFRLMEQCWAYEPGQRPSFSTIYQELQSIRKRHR
Assay: phosphorylation enrichment, bacterial display (enrichment ratio); higher = better substrate or ligand; peptides without Tyr show the background
Write the number on its own, no unit after it.

Could you tell me which phosphorylation enrichment is on file for GHGRFYMKEAI [PGM1_Y66_D62H] ? 0.754

Try this sequence too: QKMLDYLKEKK [RYR2_Y3780] 1.1

Try this sequence too: GRPMDYHVSIT [OTOF_Y254_Q255H] 0.923

Try this sequence too: IFGEEYEEQPR [ZMYM2_Y1033_V1028I] 1.28

Try this sequence too: TLPAFYMGNFS [GLB1_Y552] 1.02

Try this sequence too: PVVKLYATDGR [RP1_Y199] 1.01

###

Molecular target: FGFR3 (UniProt P22607)
Sequence (P22607 whole entry, looked up): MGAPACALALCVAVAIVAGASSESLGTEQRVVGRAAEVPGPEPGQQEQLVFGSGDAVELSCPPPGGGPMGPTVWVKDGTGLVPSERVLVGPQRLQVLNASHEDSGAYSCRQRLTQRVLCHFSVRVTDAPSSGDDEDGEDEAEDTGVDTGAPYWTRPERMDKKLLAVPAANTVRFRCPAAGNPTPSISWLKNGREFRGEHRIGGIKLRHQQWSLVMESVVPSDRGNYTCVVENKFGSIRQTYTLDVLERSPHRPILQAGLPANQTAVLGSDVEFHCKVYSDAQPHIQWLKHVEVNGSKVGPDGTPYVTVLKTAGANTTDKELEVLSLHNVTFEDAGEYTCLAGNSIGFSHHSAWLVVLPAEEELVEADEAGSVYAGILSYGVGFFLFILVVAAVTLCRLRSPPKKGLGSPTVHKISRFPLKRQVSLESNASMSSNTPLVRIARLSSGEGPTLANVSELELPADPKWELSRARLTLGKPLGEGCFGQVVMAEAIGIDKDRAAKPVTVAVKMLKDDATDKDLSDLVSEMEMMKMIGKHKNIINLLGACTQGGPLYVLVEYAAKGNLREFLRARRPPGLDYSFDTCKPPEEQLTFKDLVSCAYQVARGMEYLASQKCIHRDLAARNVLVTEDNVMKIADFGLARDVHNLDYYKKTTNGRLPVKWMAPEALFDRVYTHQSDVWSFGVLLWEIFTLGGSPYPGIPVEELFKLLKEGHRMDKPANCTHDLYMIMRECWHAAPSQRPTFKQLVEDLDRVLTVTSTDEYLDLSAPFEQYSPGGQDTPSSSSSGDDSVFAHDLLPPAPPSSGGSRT
Experiment: phosphorylation enrichment, bacterial display (enrichment ratio); higher = better substrate or ligand; peptides without Tyr show the background
Each entry gets N if its phosphorylation enrichment stays under 0.6, and Y if its phosphorylation enrichment is 0.6 or above.

Entry LASLIYNFILF [AQP6_Y231_V234I] : is its phosphorylation enrichment no less than 0.6? Y

Try this sequence too: IATTIYSGDKI [UGGT2_Y823_A821T] N

Try this sequence too: ASNFNYFYHRE [KCNA1_Y413_V408A] Y

Try this sequence too: HHIDFYKETTN [FGFR1_Y654_K656E_YF] Y

Try this sequence too: STFVPYEIKVQ [L1CAM_Y784] Y

Try this sequence too: GVFSRYFTTFD [CLCA1_Y661_YF] Y

Try this sequence too: WNRDKYAATTT [TRIM39_Y439_G436R] N

Try this sequence too: AAFNRYDQERF [CDC73_Y293_YF] N
